The values you see were collected from ChEMBL document CHEMBL1131460.

# procedureSummary: Time of maximum concentration achieved in rat brain when administered intraperitoneally at a dose of 10 mg/kg
# Type: ADME, organism-based
# Design: dose 10 mg/kg, route intraperitoneal
# experimentalConditions: ip
measurementType: Tmax (min)

molecularString: N[C@](CC1c2ccccc2Oc2ccccc21)(C(=O)O)[C@H]1C[C@@H]1C(=O)O
readoutNumber: 30

----------
# procedureSummary: Brain concentration after 0.5 hr at a dose of 10 mg/kg when administered intravenously
# experimentalConditions: iv

molecularString: N[C@](CC1c2ccccc2Oc2ccccc21)(C(=O)O)[C@H]1C[C@@H]1C(=O)O
concentration at 0.5 h [ng/g]: 243
